Where these numbers come from: ChEMBL document CHEMBL2380193

# Tested on: Salmonella typhi
# test.method.notes: Antibacterial activity against Salmonella typhi MTCC 733 assessed as zone of inhibition at 100 ug/ml after 14 hrs by cup plate method
# Format: functional, Salmonella enterica subsp. enterica serovar Typhi
# condition.context: Salmonella enterica, MTCC 733, 14 h; read-out: IZ
experimental.readout: zone of inhibition at 100 µg/mL (mm)
// units = mm; emit number, no label

Take a look at these entries with their results.
| molecule | endpoint.unit | observed.value |
| --- | --- | --- |
| Cc1ccc2c(c1)c(=O)cc(C(F)(F)F)n2CCCCN1C(=O)c2ccccc2C1=O | mm | 13 |
| O=C(O)c1cn(C2CC2)c2cc(N3CCNCC3)c(F)cc2c1=O | mm | 14 |
| O=c1cc(C(F)(F)F)n(CCCCN2CCCC2)c2ccc(F)cc12 | mm | 12 |

Consider the record given below.
Problem: Please give the measured zone of inhibition at 100 µg/mL for this compound: O=C1c2ccccc2C(=O)N1CCCCn1c(C(F)(F)F)cc(=O)c2cc(F)ccc21
Solution: 13

* * *

# Test system: Salmonella typhi
# test.method.notes: Antibacterial activity against Salmonella typhi MTCC 733 assessed as zone of inhibition at 100 ug/ml after 14 hrs by cup plate method
# Format: functional, Salmonella enterica subsp. enterica serovar Typhi
# condition.context: Salmonella enterica, MTCC 733, 14 h; read-out: IZ
Reported values of zone of inhibition at 100 µg/mL for individual entries

Sample answers from the record:
| molecule | test.target | experimental.readout | observed.value |
| --- | --- | --- | --- |
| COc1ccc2c(c1)c(=O)cc(C(F)(F)F)n2CCCCN1C(=O)c2ccccc2C1=O | Salmonella typhi | zone of inhibition at 100 µg/mL | < 10 mm |
| O=c1cc(C(F)(F)F)n(CCCCN2CCCCC2)c2ccc(F)cc12 | Salmonella typhi | zone of inhibition at 100 µg/mL | < 10 mm |
| O=c1cc(C(F)(F)F)n(CCCCN2CCOCC2)c2ccc(F)cc12 | Salmonella typhi | zone of inhibition at 100 µg/mL | < 10 mm |
| CN1CCN(CCCCn2c(C(F)(F)F)cc(=O)c3cc(F)ccc32)CC1 | Salmonella typhi | zone of inhibition at 100 µg/mL | < 10 mm |
| Cc1ccc2nc(C(F)(F)F)cc(OCCCCN3C(=O)c4ccccc4C3=O)c2c1 | Salmonella typhi | zone of inhibition at 100 µg/mL | 12 mm |
| O=c1cc(C(F)(F)F)n(C/C=C/CN2CCCCC2)c2ccc(F)cc12 | Salmonella typhi | zone of inhibition at 100 µg/mL | < 10 mm |
| O=c1cc(C(F)(F)F)n(C/C=C/CN2CCCC2)c2ccc(F)cc12 | Salmonella typhi | zone of inhibition at 100 µg/mL | < 10 mm |
| O=C1c2ccccc2C(=O)N1CCCCn1c(C(F)(F)F)cc(=O)c2ccccc21 | Salmonella typhi | zone of inhibition at 100 µg/mL | < 10 mm |
| CN1CCN(C/C=C/Cn2c(C(F)(F)F)cc(=O)c3cc(F)ccc32)CC1 | Salmonella typhi | zone of inhibition at 100 µg/mL | 12 mm |

--- query ---
Problem: Can you look up the measured zone of inhibition at 100 µg/mL of O=C1c2ccccc2C(=O)N1CCCCOc1cc(C(F)(F)F)nc2ccc(F)cc12 for me?
Solution: 12 mm
